# system-name: T1, full-length human GIPR with an N-terminal FLAG tag (human, UniProt P48546 22-466)
# T1 sequence (looked up): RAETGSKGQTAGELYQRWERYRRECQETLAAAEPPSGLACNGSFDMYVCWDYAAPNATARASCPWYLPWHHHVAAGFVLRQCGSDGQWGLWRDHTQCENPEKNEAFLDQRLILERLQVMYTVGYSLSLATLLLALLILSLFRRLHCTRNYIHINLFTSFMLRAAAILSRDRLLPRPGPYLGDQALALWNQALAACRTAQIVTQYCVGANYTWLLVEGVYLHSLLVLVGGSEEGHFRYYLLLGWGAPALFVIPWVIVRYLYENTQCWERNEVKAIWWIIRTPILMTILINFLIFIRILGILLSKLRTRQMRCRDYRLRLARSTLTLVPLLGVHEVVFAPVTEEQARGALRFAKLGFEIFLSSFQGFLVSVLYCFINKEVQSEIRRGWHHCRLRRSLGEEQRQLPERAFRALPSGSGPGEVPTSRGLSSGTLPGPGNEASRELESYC
# assay-explanation: cell-based or functional assay
Starred links: 1 amine or outer side, 2 acyl side, 3 side chain; linkers in the order of their positions; H or OH if unused. Non-standard residues stand in square brackets, D forms with d. Groups on a side chain read outwards from the residue. No end group written: not given here. *: point of attachment. C18 diacid = O=C(O)CCCCCCCCCCCCCCCCC(=O)*; γGlu = O=C(O)[C@H](CCC(=O)[*:2])N[*:1]; NMeY = CN[C@@H](Cc1ccc(O)cc1)C(=O)O; AEEA = NCCOCCOCC(=O)O; Aib = CC(C)(N)C(=O)O
experimental-endpoint: Human GIPR cAMP EC50, HEK293T (pM)

* [NMeY][Aib]EGTFISDYSIALDR[Aib]AQ[Aib]K([GGPAPAPgE-C18 diacid])FVNWLLAQSPG-OH [Compound No. 117] | 2
* YXEGTFISDYSIAXDRXAQXNFVNWLLAQSPSSGAPPPS (N-methyl Tyr 1; Aib at 2,17,20; Lys(G5-C20 diacid) at 14; C-terminal OH) [Compound No. 40] | 0.7
* YXEGTFISDYSIXXDRXAQXDFVEWLLAQRG (N-methyl Tyr 1; Aib at 2,13,17,20; Lys(G5-C18 diacid) at 14; C-terminal OH) [Compound No. 108] | 0.2
* YXEGTFISDYSIXXDRXAQXDFVNWLLAQSPSSGAPPPS (N-methyl Tyr 1; Aib at 2,13,17,20; Lys(G5-C18 diacid) at 14; C-terminal OH) [Compound No. 47] | 0.8
* [NMeY][Aib]EGTFISDYSI[Aib]LDRK([AEEA-AEEA-γGlu-γGlu-C18 diacid])AQ[Aib]NFVNWLLAQRPSSGAPPPS-NH2 [Compound No. 26] | 0.3
